- System: T1, RBM45 RRM3 (Homo sapiens, UniProt Q8IUH3 370-476)
- T1 sequence: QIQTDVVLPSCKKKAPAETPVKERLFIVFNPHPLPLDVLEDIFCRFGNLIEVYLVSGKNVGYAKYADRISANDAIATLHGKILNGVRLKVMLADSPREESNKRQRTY
- Assay Details: fluorescence polarization; m6A comparison experiment; FP: 100 nM FAM-RNA/ssDNA, 10 mM Tris-HCl pH 7.5, 200 mM NaCl, 1 mM DTT, 1 mM EDTA, 5% glycerol, 25 °C, 30 min
- Experimental Conditions: protein: recombinant; tags: C-terminal His-tag; label: 5'-FAM
Experimental Endpoint: pKd
Give bare numbers, as −log10 of the molar value.

Documented pKd of GGACGG (ssRNA) [GGACGG RNA] : 5.50

All figures here come from paper PMC11402289.
